target: human DR5 (human); assay: SPR (BIAcore X100), human DR5 on CM5 chip, IgG injected, 1:1 Langmuir model
endpointName: kon
Answer format reminder: number followed by unit.

Recorded results for 4 binders are shown here.
{"binder": "D0 (antibody, V domains shown) VH: AVTLDESGGGLQTPGGGLSLVCKGSGFTFSSFNMLWVRQAPGKGLEWVAGIGKSDRYTGYGSAVKGRATISRDDGQSTVRLQLNNLRAEDTGTYYCVKDAGSGCGSGGWTGACIDTWGHGTEVIVSS VL: LTQPSSVSANLGGTVEITCSGGDSYAGSYYYGWYQQKAPGSAPVTVIYNNNNRPSNIPSRFSGSTSGSTATLTITGVQAEDEAVYFCGSRDSSYVGIFGAGTTLTVL", "kon": "1.49e+06 M⁻¹ s⁻¹"}
{"binder": "DA28 (antibody, V domains shown) VH: AVTLDESGGGLQTPGGGLSLVCKGSGFTFSSFNMLWVRQAPGKGLEWVAGIGKSDRYTGYGSAVKGRATISRDDGQSTARLQLNNLRAEDTGTYYCVKDAGSGCGSGGWTGACIDTWGHGTEVIVSS VL: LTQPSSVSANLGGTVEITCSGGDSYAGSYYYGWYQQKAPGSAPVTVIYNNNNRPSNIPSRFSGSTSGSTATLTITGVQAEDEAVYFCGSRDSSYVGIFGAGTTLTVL", "kon": "1.16e+06 M⁻¹ s⁻¹"}
{"binder": "DA32 (antibody, V domains shown) VH: AVTLDESGGGLQTPGGGLSLVCKGSGFTFSSFNMLWVRQAPGKGLEWVAGIGKSDRYTGYGSAVKGRATISRDDGQSTVRLQLNNLRAEDTAVYYCVKDAGSGCGSGGWTGACIDTWGHGTEVIVSS VL: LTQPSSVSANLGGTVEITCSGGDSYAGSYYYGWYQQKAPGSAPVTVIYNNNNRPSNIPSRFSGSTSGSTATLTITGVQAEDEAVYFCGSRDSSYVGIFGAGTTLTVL", "kon": "1.14e+06 M⁻¹ s⁻¹"}
{"binder": "DA5 (antibody, V domains shown) VH: EVQLVESGGGLVQPGGSLRLSCAASGFTFSSFNMLWVRQAPGKGLEWVAGIGKSDRYTGYGSAVKGRFTISRDDSKSTAYLQMNSLRAEDTAVYYCVRDAGSGCGSGGWTGACIDTWGQGTLVTVSS VL: DIQMTQSPSSLSASVGDRVTITCSGGDSYAGSYYYGWYQQKPGKAPKTLIYNNNNRPSGVPSRFSGSTSGTDFTLTISSLQPEDFATYYCGSRDSSYVGIFGQGTKVEIK", "kon": "1.2e+06 M⁻¹ s⁻¹"}

Give a short answer stating reported kon for DA24 (antibody, V domains shown) VH: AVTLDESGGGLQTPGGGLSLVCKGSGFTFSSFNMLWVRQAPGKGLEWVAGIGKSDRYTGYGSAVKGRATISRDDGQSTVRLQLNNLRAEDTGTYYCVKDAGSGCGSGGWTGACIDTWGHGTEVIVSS VL: LTQPSSVSANLGGTVEITCSGGDSYAGSYYYGWYQQKAPGSAPVTVIYNNNNRPSNIPSRFSGSTSGSTATLTITGVQAEDEATYYCGSRDSSYVGIFGAGTTLTVL .
1.2e+06 M⁻¹ s⁻¹
